Assay Procedure: magnetic relaxation rates (MRI contrast effect)
Assay type: physicochemical
Condition Parameters: magnetic relaxation rate; field strength not stated for Table 1
Procedure: In order to examine the MRI contrast effects of the compounds (Gd-suc, Gd-glu) and commercially available MRI contrast agents according to Examples of the present invention, the magnetic relaxation rates and lipophilicity were analyzed, and the results are shown in Table 1 below. The magnetic relaxation rate (mM^−ls^−1) is a parameter indicating contrast efficiency per unit concentration, and in the case of a T1 contrast agent, the r2/r1 ratio is known to have a value of 0.5 to 1.5.
Outcome: Yes for r1 of at least 4 mM^−ls^−1; No for anything lower.

Please review the entries below; each comes with its answer.
* CNC[C@H](O)[C@@H](O)[C@H](O)[C@H](O)CO.O=C([O-])CN1CCN(CC(=O)[O-])CCN(CC(=O)O)CCN(CC(=O)[O-])CC1.[Gd+3] | Yes
* CC(O)CN1CCN(CC(=O)[O-])CCN(CC(=O)[O-])CCN(CC(=O)[O-])CC1.[Gd+3] (centres unmarked) | No
* CCOc1ccc(CC(CN(CCN(CC(=O)[O-])CC(=O)[O-])CC(=O)[O-])N(CC(=O)[O-])CC(=O)[O-])cc1.[Gd+3].[Na+].[Na+] (centres unmarked) | Yes
* CNC[C@H](O)[C@@H](O)[C@H](O)[C@H](O)CO.CNC[C@H](O)[C@@H](O)[C@H](O)[C@H](O)CO.O=C([O-])CN(CCN(CC(=O)[O-])CC(=O)O)CCN(CC(=O)O)C(COCc1ccccc1)C(=O)[O-].[Gd+3] (centres unmarked) | Yes
* CCOc1ccc(CN2CCN(CC(=O)[O-])CCN(C(CCC(=O)[O-])C(=O)[O-])CCN(CC(=O)[O-])CC2)cc1.[Gd+3] (centres unmarked) | Yes

Request: Check this compound for r1 at or above 4 mM^−ls^−1: CNC(=O)CN(CCN(CCN(CC(=O)[O-])CC(=O)NC)CC(=O)[O-])CC(=O)[O-].[Gd+3]
Response: No

Request: Check this compound for r1 at or above 4 mM^−ls^−1: O=C([O-])CN1CCN(CC(=O)[O-])CCN([C@H](CO)[C@H](O)CO)CCN(CC(=O)[O-])CC1.[Gd+3] (racemic)
Response: Yes

Request: Check this compound for r1 at or above 4 mM^−ls^−1: CNC[C@H](O)[C@@H](O)[C@H](O)[C@H](O)CO.CNC[C@H](O)[C@@H](O)[C@H](O)[C@H](O)CO.O=C([O-])CN(CCN(CC(=O)[O-])CC(=O)O)CCN(CC(=O)[O-])CC(=O)O.[Gd+3]
Response: No

---

Assay Procedure: magnetic relaxation rates (MRI contrast effect)
Format: physicochemical
Condition Parameters: magnetic relaxation rate; field strength not stated for Table 1
Measured Property: r2 (mM^−ls^−1)
Report the value in mM^−ls^−1 with no unit label.

Request: State the recorded r2 for this entry: CC(O)CN1CCN(CC(=O)[O-])CCN(CC(=O)[O-])CCN(CC(=O)[O-])CC1.[Gd+3] (centres unmarked)
Response: 4.58

Request: State the recorded r2 for this entry: O=C([O-])CN1CCN(CC(=O)[O-])CCN([C@H](CO)[C@H](O)CO)CCN(CC(=O)[O-])CC1.[Gd+3] (racemic)
Response: 4.60

Request: State the recorded r2 for this entry: CNC[C@H](O)[C@@H](O)[C@H](O)[C@H](O)CO.O=C([O-])CN1CCN(CC(=O)[O-])CCN(CC(=O)O)CCN(CC(=O)[O-])CC1.[Gd+3]
Response: 4.75
